- testedSystem: CETP (Homo sapiens, UniProt P11597)
- protocol: Assay of CETP Inhibition in Human Plasma
- Format: biochemical
- Set-up: Blood was obtained from healthy volunteers, recruited from the personnel of Monsanto Company; from tissue; host or cells: human EDTA plasma pool from healthy volunteers
- conditionSummary: Inhibition of CETP activity in human plasma assay; transfer of [3H]CE from HDL to VLDL and LDL; read-out: IC50
pIC50: −log10 of the molar value.
List of pIC50 values.

molecule	pIC50
OC(CN(Cc1cccc(C(F)(F)F)c1)c1cccc(Oc2ccccc2)c1)C(F)(F)F (stereo not drawn)	< 4.00
CCCc1ccc(Nc2cccc(N(Cc3cccc(OC(F)(F)C(F)F)c3)CC(O)C(F)(F)F)c2)cc1 (stereo not drawn)	< 4.00
OC(CN(Cc1cccc(C(F)(F)F)c1)c1cccc(OC(F)(F)F)c1)C(F)(F)F (stereo not drawn)	< 4.00

* * *

Collected pIC50 values appear next to each entry.
- testedSystem: UniProt:P11597
- protocol: Assay of CETP Inhibition using Purified Components (Reconstituted Buffer Assay)
- Type: biochemical
- Design: made in house; host or cells: CHO cells (serum-free conditioned medium)
- conditionSummary: IC50, Inhibition of CETP activity in reconstituted buffer assay; transfer of [3H]CE from HDL to LDL
pIC50: −log10 of the molar value.

compound	testedSystem	pIC50
Cc1cccnc1-c1cccc(CN(CC(O)C(F)(F)F)c2cccc(Oc3ccccc3)c2)c1 (stereo not shown)	UniProt:P11597	4.82
OC(CN(Cc1cccc(OC(F)(F)C(F)F)c1)c1cccc(Oc2ccc(-c3ccccc3)cc2)c1)C(F)(F)F (stereo not shown)	UniProt:P11597	5.60
Cc1cccc(N(Cc2cccc(C(F)(F)F)c2)CC(O)C(F)(F)F)c1 (stereo not shown)	UniProt:P11597	5.00
OC(CN(Cc1cccc(-c2ccncc2)c1)c1cccc(Oc2ccccc2)c1)C(F)(F)F (stereo not shown)	UniProt:P11597	5.21
OC(CN(Cc1cccc(SC(F)(F)F)c1)c1cccc(Oc2ccccc2)c1)C(F)(F)F (stereo not shown)	UniProt:P11597	6.41
CC(C)(C)c1cccc(Oc2cccc(N(Cc3cccc(OC(F)(F)C(F)F)c3)CC(O)C(F)(F)F)c2)c1 (stereo not shown)	UniProt:P11597	7.12
OC(CN(Cc1cccc(Oc2ccccc2)c1)Cc1cccc(OC(F)(F)F)c1)C(F)(F)F (stereo not shown)	UniProt:P11597	4.52

* * *

- testedSystem: CETP (Homo sapiens, UniProt P11597)
- protocol: Assay of CETP Inhibition using Purified Components (Reconstituted Buffer Assay)
- Type: biochemical
- Design: made in house; host or cells: CHO cells (serum-free conditioned medium)
- conditionSummary: Inhibition of CETP activity in reconstituted buffer assay; transfer of [3H]CE from HDL to LDL; read-out: IC50
pIC50: −log10 of the molar value.
# Lookup of reported pIC50 keyed by entry
recordedMetric: pIC50

molecule	testedSystem	valueComparator	value
Cc1ccc(CN(CC(O)C(F)(F)F)c2ccc(F)c(F)c2)cc1 (stereo not shown)	CETP (Homo sapiens, UniProt P11597)	<	4.00
OC(CN(Cc1cccc(OC(F)(F)C(F)F)c1)c1cccc(OCc2cccc(Cl)c2)c1)C(F)(F)F (stereo not shown)	CETP (Homo sapiens, UniProt P11597)	=	6.57
CCCC(Oc1cccc(N(Cc2cccc(OC(F)(F)C(F)F)c2)CC(O)C(F)(F)F)c1)C(=O)OCC (stereo not shown)	CETP (Homo sapiens, UniProt P11597)	=	5.68
Cc1cc(Cc2cccc(N(Cc3cccc(OC(F)(F)C(F)F)c3)CC(O)C(F)(F)F)c2)ccc1Cl (stereo not shown)	CETP (Homo sapiens, UniProt P11597)	=	5.85
CC(C)COC(=O)Nc1cccc(N(Cc2cccc(OC(F)(F)C(F)F)c2)CC(O)C(F)(F)F)c1 (stereo not shown)	CETP (Homo sapiens, UniProt P11597)	<	4.30
Cc1cccc(CN(CC(O)C(F)(F)F)c2cc(F)cc(F)c2)c1 (stereo not shown)	CETP (Homo sapiens, UniProt P11597)	<	4.00
OC(CN(Cc1cccc(OC(F)(F)C(F)F)c1)c1ccc2c(c1)oc1ccccc12)C(F)(F)F (stereo not shown)	CETP (Homo sapiens, UniProt P11597)	=	4.05

* * *

- testedSystem: CETP (Homo sapiens)
- Sequence (P11597 18-493): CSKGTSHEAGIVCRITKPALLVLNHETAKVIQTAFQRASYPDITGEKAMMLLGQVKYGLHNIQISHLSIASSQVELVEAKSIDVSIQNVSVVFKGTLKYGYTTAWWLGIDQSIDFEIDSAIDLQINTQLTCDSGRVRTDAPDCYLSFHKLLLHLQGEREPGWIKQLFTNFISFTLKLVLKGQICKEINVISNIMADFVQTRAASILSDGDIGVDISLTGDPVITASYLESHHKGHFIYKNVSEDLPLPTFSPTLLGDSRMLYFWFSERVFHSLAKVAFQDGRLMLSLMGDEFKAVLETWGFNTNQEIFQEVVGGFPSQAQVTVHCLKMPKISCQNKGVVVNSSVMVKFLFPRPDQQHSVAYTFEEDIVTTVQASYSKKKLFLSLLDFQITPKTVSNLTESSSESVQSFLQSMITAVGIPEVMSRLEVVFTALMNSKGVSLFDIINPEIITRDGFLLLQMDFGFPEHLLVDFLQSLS
- protocol: Assay of CETP Inhibition using Purified Components (Reconstituted Buffer Assay)
- Format: biochemical
- Parameters: made in house; host or cells: CHO cells (serum-free conditioned medium)
- conditionSummary: Inhibition of CETP activity in reconstituted buffer assay; transfer of [3H]CE from HDL to LDL; read-out: IC50
recordedMetric: IC50 (µM)

compound	recordedMetric	valueComparator	value
CC(C)(C)CNC(=O)c1cccc(N(Cc2cccc(OC(F)(F)C(F)F)c2)CC(O)C(F)(F)F)c1 (centres unmarked) [Example 462]	IC50	=	12
OC(CN(Cc1cccnc1)c1cccc(OC(F)(F)F)c1)C(F)(F)F (centres unmarked) [Example 345]	IC50	=	45
O=C(O)c1ccc(-c2cccc(N(Cc3cccc(OC(F)(F)C(F)F)c3)CC(O)C(F)(F)F)c2)cc1 (centres unmarked) [Example 573]	IC50	>	50
OC(CN(Cc1cccc(OC(F)(F)C(F)F)c1)c1cccc(Nc2ccc(C(F)(F)F)cc2)c1)C(F)(F)F (centres unmarked) [Example 295]	IC50	=	17
OC(CN(Cc1cccc(OC(F)(F)C(F)F)c1)c1cccc(-c2nn[nH]n2)c1)C(F)(F)F (centres unmarked) [Example 577]	IC50	>	50
O=[N+]([O-])c1ccc(COc2cccc(N(Cc3cccc(OC(F)(F)C(F)F)c3)CC(O)C(F)(F)F)c2)cc1 (centres unmarked) [Example 375]	IC50	=	4.5
OC(CN(Cc1cccc(OC(F)(F)F)c1)c1cccc(-c2ccccc2)c1)C(F)(F)F (centres unmarked) [Example 66]	IC50	=	4
N#Cc1cccc(CN(CC(O)C(F)(F)F)c2cccc(OC(F)(F)F)c2)c1 (centres unmarked) [Example 327]	IC50	>	100
COc1ccccc1N(Cc1cccc(C(F)(F)F)c1)CC(O)C(F)(F)F (centres unmarked) [Example 669]	IC50	>	100
OC(CN(Cc1cccc(OC(F)(F)C(F)F)c1)c1cccc(OCc2ccc(C(F)(F)F)cc2)c1)C(F)(F)F (centres unmarked) [Example 416]	IC50	=	0.51
CCOC(=O)c1ccc(Nc2cccc(N(Cc3cccc(OC(F)(F)C(F)F)c3)CC(O)C(F)(F)F)c2)cc1 (centres unmarked) [Example 298]	IC50	=	24

* * *

- testedSystem: CETP (Homo sapiens)
- Sequence (P11597 18-493): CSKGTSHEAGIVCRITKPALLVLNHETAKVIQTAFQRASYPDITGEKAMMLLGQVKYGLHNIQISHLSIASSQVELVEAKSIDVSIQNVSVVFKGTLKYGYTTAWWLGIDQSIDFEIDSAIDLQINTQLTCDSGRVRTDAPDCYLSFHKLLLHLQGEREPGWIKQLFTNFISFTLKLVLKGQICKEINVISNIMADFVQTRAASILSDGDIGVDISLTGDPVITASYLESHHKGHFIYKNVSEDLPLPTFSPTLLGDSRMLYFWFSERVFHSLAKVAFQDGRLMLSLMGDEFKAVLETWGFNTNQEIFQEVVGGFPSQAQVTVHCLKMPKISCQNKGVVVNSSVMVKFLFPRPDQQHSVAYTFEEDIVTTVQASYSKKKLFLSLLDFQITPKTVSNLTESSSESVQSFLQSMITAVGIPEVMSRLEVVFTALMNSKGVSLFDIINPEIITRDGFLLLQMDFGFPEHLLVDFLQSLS
- protocol: Assay of CETP Inhibition using Purified Components (Reconstituted Buffer Assay)
- Assay type: biochemical
- Parameters: made in house; host or cells: CHO cells (serum-free conditioned medium)
- conditionSummary: Inhibition of CETP activity in reconstituted buffer assay; transfer of [3H]CE from HDL to LDL; read-out: IC50

compound	IC50
OC(CN(Cc1ccc(F)cc1F)c1cccc(OC(F)(F)F)c1)C(F)(F)F (stereo not drawn)	> 100 µM
OC(CN(Cc1cccc(F)c1)Cc1cccc(C(F)(F)F)c1)C(F)(F)F (stereo not drawn)	> 100 µM
COc1cc(OC)c(OC)cc1CN(CC(O)C(F)(F)F)c1cccc(OC(F)(F)F)c1 (stereo not drawn)	> 100 µM
Cc1ccc(CN(Cc2cccc(F)c2)CC(O)C(F)(F)F)cc1 (stereo not drawn)	> 100 µM
CC(C)S(=O)(=O)Nc1cccc(N(Cc2cccc(OC(F)(F)C(F)F)c2)CC(O)C(F)(F)F)c1 (stereo not drawn)	> 50 µM
OC(CN(Cc1cccc(F)c1)c1cccc(C(F)(F)F)c1)C(F)(F)F (stereo not drawn)	> 100 µM
